# testSystem: P-gp (ABCB1) efflux pump in MDR Colo 320 colon adenocarcinoma cells (Homo sapiens, UniProt P08183)
# Sequence (P08183 whole entry): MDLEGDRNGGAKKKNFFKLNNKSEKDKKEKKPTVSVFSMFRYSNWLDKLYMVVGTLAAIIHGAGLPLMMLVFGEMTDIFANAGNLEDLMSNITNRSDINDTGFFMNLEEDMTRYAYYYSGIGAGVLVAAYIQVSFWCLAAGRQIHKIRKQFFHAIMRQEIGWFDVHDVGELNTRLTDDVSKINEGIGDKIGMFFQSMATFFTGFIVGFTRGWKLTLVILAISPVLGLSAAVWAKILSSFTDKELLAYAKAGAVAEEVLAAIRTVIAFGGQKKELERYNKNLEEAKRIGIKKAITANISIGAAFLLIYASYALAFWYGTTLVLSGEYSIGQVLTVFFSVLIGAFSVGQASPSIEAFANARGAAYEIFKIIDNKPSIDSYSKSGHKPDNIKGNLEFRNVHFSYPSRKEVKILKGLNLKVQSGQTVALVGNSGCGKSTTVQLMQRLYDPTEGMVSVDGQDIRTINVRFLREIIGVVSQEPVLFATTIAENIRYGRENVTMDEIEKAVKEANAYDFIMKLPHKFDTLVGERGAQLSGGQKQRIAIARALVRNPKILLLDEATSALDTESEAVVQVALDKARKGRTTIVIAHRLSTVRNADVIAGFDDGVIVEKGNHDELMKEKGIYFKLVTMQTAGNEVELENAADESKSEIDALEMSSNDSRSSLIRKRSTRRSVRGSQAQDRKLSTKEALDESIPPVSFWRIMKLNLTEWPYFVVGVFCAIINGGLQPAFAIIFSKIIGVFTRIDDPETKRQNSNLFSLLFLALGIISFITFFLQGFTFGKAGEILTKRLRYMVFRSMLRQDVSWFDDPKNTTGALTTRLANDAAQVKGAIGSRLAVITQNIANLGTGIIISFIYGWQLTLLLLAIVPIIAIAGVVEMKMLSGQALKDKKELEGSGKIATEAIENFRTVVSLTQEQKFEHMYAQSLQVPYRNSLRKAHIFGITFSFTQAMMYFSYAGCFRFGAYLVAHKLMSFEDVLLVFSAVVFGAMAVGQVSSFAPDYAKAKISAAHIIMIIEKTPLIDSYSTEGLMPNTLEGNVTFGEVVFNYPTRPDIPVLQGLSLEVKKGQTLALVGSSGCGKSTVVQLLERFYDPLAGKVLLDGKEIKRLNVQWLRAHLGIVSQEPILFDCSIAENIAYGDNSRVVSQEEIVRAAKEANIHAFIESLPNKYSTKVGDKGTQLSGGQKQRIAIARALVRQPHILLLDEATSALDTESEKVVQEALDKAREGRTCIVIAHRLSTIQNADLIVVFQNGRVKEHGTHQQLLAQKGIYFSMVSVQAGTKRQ
# measurementNotes: Rhodamine 123 accumulation assay (MDR efflux pump inhibition, flow cytometry)
# cond: 2 μM compound, MDR Colo 320 vs sensitive Colo 205
measurementName: FAR (fluorescence activity ratio)
Enter the number alone.

I have this compound here, COc1ccc(-c2sc3ccccc3c(=O)c2CC(S(=O)(=O)C(F)(F)F)S(=O)(=O)C(F)(F)F)cc1 , and I need its recorded FAR (fluorescence activity ratio).
0.97

I have this compound here, COc1ccc2cc(-c3oc4ccccc4c(=O)c3CC(S(=O)(=O)C(F)(F)F)S(=O)(=O)C(F)(F)F)ccc2c1 , and I need its recorded FAR (fluorescence activity ratio).
1.48

I have this compound here, COc1ccc(-c2[se]c3ccccc3c(=O)c2CC(S(=O)(=O)C(F)(F)F)S(=O)(=O)C(F)(F)F)cc1 , and I need its recorded FAR (fluorescence activity ratio).
1.06

I have this compound here, COc1ccc2cc(-c3sc4ccccc4c(=O)c3CC(S(=O)(=O)C(F)(F)F)S(=O)(=O)C(F)(F)F)ccc2c1 , and I need its recorded FAR (fluorescence activity ratio).
1.95

I have this compound here, COc1ccc2cc(-c3[se]c4ccccc4c(=O)c3CC(S(=O)(=O)C(F)(F)F)S(=O)(=O)C(F)(F)F)ccc2c1 , and I need its recorded FAR (fluorescence activity ratio).
1.14

I have this compound here, COc1ccc(-c2oc3ccccc3c(=O)c2CC(S(=O)(=O)C(F)(F)F)S(=O)(=O)C(F)(F)F)cc1 , and I need its recorded FAR (fluorescence activity ratio).
1.14
